Test: Stability of DNPs by DLS after storage at 5° C.
Type: physicochemical
Parameters: key: U: DLS curve showed unimodal size distribution; B: DLS curve showed bimodal size distribution; M: DLS curve showed multimodal size distribution
Conditions: before storage; IAJD 4.0 mg/mL + Luc-mRNA 0.1 mg/mL, acetate buffer pH 4.00
reported_endpoint: Original size distribution type (DLS curve)

These recorded examples may help you get a feel for the data.
CCCCCCCCCCCCCCCCCCOc1cc(COC(=O)CCCN2CCN(C)CC2)cc(OCCCCCCCCCCCCC)c1 [IAJD 177] = (B)
CCCCCCCCCCCCCCCCCOc1cc(CNC(=O)c2cc(OCCOCCOCCOC(=O)CCCN3CCCCC3)c(OCCCOCOCCOCc3ccccc3)c(OCCOCCOCCOC(=O)CCCN3CCCCC3)c2)cc(OCCCCCCCCCCCCCCCCC)c1 [IAJD 159] = (U)
CCCCCCCCCCCCOc1cc(COC(=O)CCCN2CCN(CCO)CC2)cc(OCCCCCCCCCCC)c1 [IAJD 124] = (U)
CCCCCCCCCCCCCOc1cc(COC(=O)CCCN2CCN(C)CC2)cc(OCCCCCCCCCCC)c1 [IAJD 116] = (U)

Kindly review the next compound as well.
Give the measured Original size distribution type (DLS curve) of CCCCCCCCCCCCCCCOc1cc(COC(=O)CCCN2CCN(C)CC2)cc(OCCCCCCCCCCCCC)c1 [IAJD 145] .
(U)

###

Assay: pKa measurements of individual IAJD molecules by titration
Format: physicochemical
Details: ethanol saturated with NaCl, titrated with 0.1 M aqueous HCl; individual IAJD molecules, titration
Method: pKa measurements of individual IAJD Molecules was performed as follows. IAJD Molecules were first dissolved in ethanol (Sat. with NaCl) at a concentration of 1.5 mg/mL and the solution volume was 3 mL. Then 0.1 M HCl solution was added to the above ethanol solution with an increment of 7.5 μL. […]
I'd be grateful if you could share measured pKa for these entries.
Answers are plain numbers.

These recorded examples may help you get a feel for the data.
CCCCCCCCCCCCCCCOc1cc(COC(=O)CCCN2CCN(CCO)CC2)cc(OCCCCCCCCCCCCC)c1 = 6.59
CCCCCCCCCCCCCCCCCOc1cc(COC(=O)CCCN2CCN(CCO)CC2)cc(OCCCCCCCCCCC)c1 = 6.52
CCCCCCCCCCCCCCCCCCOc1cc(COC(=O)CCCN2CCN(CCO)CC2)cc(OCCCCCCCCCCCCCCC)c1 = 6.48
CCCCCCCCCCCCCOc1cc(COC(=O)CCCN2CCN(C)CC2)cc(OCCCCCCCCCCC)c1 = 6.51
CCCCCCCCCCCCCCCOc1cc(COC(=O)CCCN2CCN(C)CC2)cc(OCCCCCCCCCCCC)c1 = 6.33

I'm hoping you can list pKa for every compound here, please.
1. CCCCCCCCCCCOc1cc(COC(=O)CCCN2CCN(C)CC2)cc(OCCCCCCCCCC)c1
2. CCCCCCCCCCCCCCOc1cc(COC(=O)c2cc(OCCOCCOCCCC(=O)CCCN3CCCCC3)c(OCCOCCOCCOCc3ccccc3)c(OCCOCCOCCOC(=O)CCCN3CCCCC3)c2)cc(OCCCCCCCCCCC)c1
3. CCCCCCCCCCCCCCCCOc1cc(COC(=O)CCCN2CCN(CCO)CC2)cc(OCCCCCCCCCCCCCCC)c1
4. CCCCCCCCCCCCCCCOc1cc(COC(=O)CCCN2CCN(CCO)CC2)cc(OCCCCCCCCCC)c1

6.43
7.43
6.65
6.69

###

Experiment: Stability of DNPs by DLS after storage at 5° C.
Format: physicochemical
Set-up: key: Excellent: the original sizes and distribution types remained almost the same after storage; Good: the original sizes and distribution types changed slightly (size difference was less than 100 nm) or the original size remained almost the same but the DLS curve showed more size distributions after storage
Details: after 62 days at 5° C.
Protocol: The stability of the DNPs as assayed by DLS. All the samples are prepared in acetate buffer. […]
reported_endpoint: Ranking of stability

These recorded examples may help you get a feel for the data.
CCCCCCCCCCCCOc1cc(COC(=O)CCCN2CCN(CCO)CC2)cc(OCCCCCCCCCCC)c1 [IAJD 124] = Good
CCCCCCCCCCCCCCCCCOc1cc(COC(=O)CCCN2CCN(CCO)CC2)cc(OCCCCCCCCCCC)c1 [IAJD 127] = Good
CCCCCCCCCCCOc1cc(COC(=O)CCCN2CCN(CCO)CC2)cc(OCCCCCCCCC)c1 [IAJD 122] = Excellent
CCCCCCCCCCCCCCCOc1cc(COC(=O)CCCN2CCN(CCO)CC2)cc(OCCCCCCCCCCC)c1 [IAJD 119] = Good
CCCCCCCCCCCCCCOc1cc(COC(=O)CCCN2CCN(CCO)CC2)cc(OCCCCCCCCCCC)c1 [IAJD 125] = Excellent

I'm hoping you can list Ranking of stability for every compound here, please.
1. CCCCCCCCCCCOc1cc(COC(=O)CCCN2CCN(CCO)CC2)cc(OCC(CC)CCCC)c1 (stereo not shown) [IAJD 130]
2. CCCCCCCCCCCCCOc1cc(COC(=O)CCCN2CCN(C)CC2)cc(OCCCCCCCCCCC)c1 [IAJD 116]

1. Excellent
2. Excellent

###

Assay: DLS size of dendrimersomes assembled from glycerol-JDs in water at different concentrations
Type: physicochemical
Conditions: JD 0.2 mg·mL−1 in water; size distribution by intensity
I'd be grateful if you could share measured Dh (nm) for these entries.
One number for each entry, in nm.

These recorded examples may help you get a feel for the data.
CCCCCCCCCCCCOc1cc(OCCCCCCCCCCCC)cc(C(=O)OCC(C)(COC(=O)c2cc(OCCCCCCCCCCCC)cc(OCCCCCCCCCCCC)c2)C(=O)OC[C@H](COC(=O)c2cc(OCCOCCOCCOC)c(OCCOCCOCCOC)c(OCCOCCOCCOC)c2)OC(=O)c2cc(OCCOCCOCCOC)c(OCCOCCOCCOC)c(OCCOCCOCCOC)c2)c1 [Compound 2S, (3,5)-12G1-BMPA-GC-(S)-(3,4,5)-3EO-G1] = 128
CCCCCCCCCCCCOc1cc(OCCCCCCCCCCCC)cc(C(=O)OCC(C)(COC(=O)c2cc(OCCCCCCCCCCCC)cc(OCCCCCCCCCCCC)c2)C(=O)OC[C@@H](COC(=O)c2cc(OCCOCCOCCOC)c(OCCOCCOCCOC)c(OCCOCCOCCOC)c2)OC(=O)c2cc(OCCOCCOCCOC)c(OCCOCCOCCOC)c(OCCOCCOCCOC)c2)c1 [Compound 2R, (3,5)-12G1-BMPA-GC-(R)-(3,4,5)-3EO-G1] = 134
CCCCCCCCCCCCOc1cc(OCCCCCCCCCCCC)cc(C(=O)OC[C@H](COC(=O)C(C)(COC(=O)c2cc(OCCOCCOCCOC)c(OCCOCCOCCOC)c(OCCOCCOCCOC)c2)COC(=O)c2cc(OCCOCCOCCOC)c(OCCOCCOCCOC)c(OCCOCCOCCOC)c2)OC(=O)c2cc(OCCCCCCCCCCCC)cc(OCCCCCCCCCCCC)c2)c1 [Compound 1R, (3,5)-12G1-GC-(R)-BMPA-(3,4,5)-3EO-G1] = 135
CCCCCCCCCCCCOc1cc(OCCCCCCCCCCCC)cc(C(=O)OCC(COC(=O)C(C)(COC(=O)c2cc(OCCOCCOCCOC)c(OCCOCCOCCOC)c(OCCOCCOCCOC)c2)COC(=O)c2cc(OCCOCCOCCOC)c(OCCOCCOCCOC)c(OCCOCCOCCOC)c2)OC(=O)c2cc(OCCCCCCCCCCCC)cc(OCCCCCCCCCCCC)c2)c1 (racemic) [Compound 1rac, (3,5)-12G1-GC-(rac)-BMPA-(3,4,5)-3EO-G1] = 136

Kindly review the next molecule as well.
Give the measured Dh (nm) of CCCCCCCCCCCCOc1cc(OCCCCCCCCCCCC)cc(C(=O)OC[C@@H](COC(=O)C(C)(COC(=O)c2cc(OCCOCCOCCOC)c(OCCOCCOCCOC)c(OCCOCCOCCOC)c2)COC(=O)c2cc(OCCOCCOCCOC)c(OCCOCCOCCOC)c(OCCOCCOCCOC)c2)OC(=O)c2cc(OCCCCCCCCCCCC)cc(OCCCCCCCCCCCC)c2)c1 [Compound 1S, (3,5)-12G1-GC-(S)-BMPA-(3,4,5)-3EO-G1] .
135

###

Test: pKa measurements of individual IAJD molecules by titration
Format: physicochemical
Conditions: individual IAJD molecule, average of pKa 1-3
I'd be grateful if you could share measured Avg pKa for these entries.
Numbers only.

These recorded examples may help you get a feel for the data.
CCCCCCCCCCCCOc1cc(CNC(=O)c2cc(OCCOCCOCCOC)c(OCCOCCOCCOC(=O)CCCN(C)C)c(OCCOCCOCCOC)c2)cc(OCCCCCCCCCCCC)c1 = 6.20
CCCCCCCCCCCCOc1cc(CNC(=O)c2cc(OCCOCCOCCOC(=O)CCCN(C)C)c(OCCOCCOCCOC)c(OCCOCCOCCOC(=O)CCCN(C)C)c2)cc(OCCCCCCCCCCCC)c1 = 6.43
CCCCCCCCCCCCOc1cc(OCCCCCCCCCCCC)cc(C(=O)OCC(COC(=O)c2cc(OCCCCCCCCCCCC)cc(OCCCCCCCCCCCC)c2)(COC(=O)c2cc(OCCOCCOCCOC)c(OCCOCCOCCOC)c(OCCOCCOCCOC(=O)CCCN(C)C)c2)NC(=O)c2cc(OCCOCCOCCOC)c(OCCOCCOCCOC)c(OCCOCCOCCOC)c2)c1 = 6.38
CCCCCCCCCCCCOc1cc(OCCCCCCCCCCCC)cc(C(=O)OCC(COC(=O)c2cc(OCCCCCCCCCCCC)cc(OCCCCCCCCCCCC)c2)(COC(=O)c2cc(OCCOCCOCCOC(=O)CCCN(C)C)c(OCCOCCOCCOC)c(OCCOCCOCCOC(=O)CCCN(C)C)c2)NC(=O)c2cc(OCCOCCOCCOC)c(OCCOCCOCCOC)c(OCCOCCOCCOC)c2)c1 = 6.36
CCCCCCCCCCCCOc1cc(OCCCCCCCCCCCC)cc(C(=O)OCC(COC(=O)c2cc(OCCCCCCCCCCCC)cc(OCCCCCCCCCCCC)c2)(COC(=O)c2cc(OCCOCCOCCOC(=O)CCCN(C)C)c(OCCOCCOCCOC(=O)CCCN(C)C)c(OCCOCCOCCOC(=O)CCCN(C)C)c2)NC(=O)c2cc(OCCOCCOCCOC)c(OCCOCCOCCOC)c(OCCOCCOCCOC)c2)c1 = 6.06

Kindly review the next molecule as well.
Give the measured Avg pKa of "CCCCCCCCCCCCOc1cc(CNC(=O)c2cc(OCCOCCOCCOC(=O)CCCN(C)C)c(OCCOCCOCCOCc3ccccc3)c(OCCOCCOCCOC(=O)CCCN(C)C)c2)cc(OCCCCCCCCCCCC)c1" .
6.56
